Tested on: Shigella flexneri
assay explanation: Antibacterial activity against 10^5 CFU/mL Shigella flexneri MTCC 1457 after 24 hrs by disc diffusion technique
Assay type: functional
recorded metric: inhibition zone (IZ)

molecule	recorded metric	observed value
N#Cc1ccc(Nc2nc(Oc3ccnc4ccccc34)nc(N3CCN(C(c4ccccc4)c4ccccc4)CC3)n2)cc1C(F)(F)F	inhibition zone (IZ)	21 mm
CC(C)N1CCN(c2nc(Nc3ccc(C#N)c(C(F)(F)F)c3)nc(Oc3ccnc4ccccc34)n2)CC1	inhibition zone (IZ)	21 mm
N#Cc1ccc(Nc2nc(Oc3ccnc4ccccc34)nc(N3CCN(c4cccc(Cl)c4Cl)CC3)n2)cc1C(F)(F)F	inhibition zone (IZ)	24 mm
N#Cc1ccc(Nc2nc(Oc3ccnc4ccccc34)nc(N3CCN(Cc4ccccc4)CC3)n2)cc1C(F)(F)F	inhibition zone (IZ)	11 mm
N#Cc1ccc(Nc2nc(Oc3ccnc4ccccc34)nc(N3CCN(C(c4ccccc4)c4ccc(Cl)cc4)CC3)n2)cc1C(F)(F)F (centres undefined)	inhibition zone (IZ)	22 mm
CN1CCN(c2nc(Nc3ccc(C#N)c(C(F)(F)F)c3)nc(Oc3ccnc4ccccc34)n2)CC1	inhibition zone (IZ)	11 mm
N#Cc1ccc(Nc2nc(Oc3ccnc4ccccc34)nc(N3CCC(Cc4ccccc4)CC3)n2)cc1C(F)(F)F	inhibition zone (IZ)	14 mm
N#Cc1ccc(Nc2nc(Oc3ccnc4ccccc34)nc(N3CCN(c4ccccc4F)CC3)n2)cc1C(F)(F)F	inhibition zone (IZ)	23 mm
COc1ccc(N2CCN(c3nc(Nc4ccc(C#N)c(C(F)(F)F)c4)nc(Oc4ccnc5ccccc45)n3)CC2)cc1	inhibition zone (IZ)	23 mm

---

System: Aspergillus fumigatus
assay explanation: Antifungal activity against 10^5 CFU/mL Aspergillus fumigatus MTCC 343 after 48 hrs by disc diffusion technique
Type: functional

smiles repr	reading qualifier	inhibition zone (IZ), mm
N#Cc1ccc(Nc2nc(Oc3ccnc4ccccc34)nc(N3CCCCC3)n2)cc1C(F)(F)F	<	10
COc1ccc(N2CCN(c3nc(Nc4ccc(C#N)c(C(F)(F)F)c4)nc(Oc4ccnc5ccccc45)n3)CC2)cc1	=	27
N#Cc1ccc(Nc2nc(Oc3ccnc4ccccc34)nc(N3CCN(Cc4ccccc4)CC3)n2)cc1C(F)(F)F	<	10
N#Cc1ccc(Nc2nc(Oc3ccnc4ccccc34)nc(N3CCN(c4ccc(F)cc4)CC3)n2)cc1C(F)(F)F	=	24
N#Cc1ccc(Nc2nc(Oc3ccnc4ccccc34)nc(N3CCN(c4ncccn4)CC3)n2)cc1C(F)(F)F	=	13
N#Cc1ccc(Nc2nc(Oc3ccnc4ccccc34)nc(N3CCOCC3)n2)cc1C(F)(F)F	<	10
COc1ccc(CN2CCN(c3nc(Nc4ccc(C#N)c(C(F)(F)F)c4)nc(Oc4ccnc5ccccc45)n3)CC2)c(OC)c1OC	=	27
CN1CCN(c2nc(Nc3ccc(C#N)c(C(F)(F)F)c3)nc(Oc3ccnc4ccccc34)n2)CC1	<	10

---

Measured MIC, listed per entry.
System: Aspergillus fumigatus
assay explanation: Antifungal activity against 10^5 CFU/mL Aspergillus fumigatus MTCC 343 after 48 hrs by agar streak dilution method
Format: functional
test context: MTCC 343, 48 h

smiles repr	MIC, µg/mL
N#Cc1ccc(Nc2nc(Oc3ccnc4ccccc34)nc(N3CCN(c4ccccn4)CC3)n2)cc1C(F)(F)F	100
COc1ccc(CN2CCN(c3nc(Nc4ccc(C#N)c(C(F)(F)F)c4)nc(Oc4ccnc5ccccc45)n3)CC2)c(OC)c1OC	25
N#Cc1ccc(Nc2nc(Oc3ccnc4ccccc34)nc(N3CCCCC3)n2)cc1C(F)(F)F	100
N#Cc1ccc(Nc2nc(Oc3ccnc4ccccc34)nc(N3CCN(C(c4ccccc4)c4ccccc4)CC3)n2)cc1C(F)(F)F	100
N#Cc1ccc(Nc2nc(Oc3ccnc4ccccc34)nc(N3CCN(Cc4ccccc4)CC3)n2)cc1C(F)(F)F	100
N#Cc1ccc(Nc2nc(Oc3ccnc4ccccc34)nc(N3CCC(Cc4ccccc4)CC3)n2)cc1C(F)(F)F	100
N#Cc1ccc(Nc2nc(Oc3ccnc4ccccc34)nc(N3CCN(c4ccccc4)CC3)n2)cc1C(F)(F)F	100
N#Cc1ccc(Nc2nc(Oc3ccnc4ccccc34)nc(N3CCN(c4cccc(C(F)(F)F)c4)CC3)n2)cc1C(F)(F)F	25
